- System Tested: T1, Recombinant human CD4 (R&D Systems, Cat. 10327-CD) (human, UniProt P01730 26-390, limits assumed)
- T1 construct: Soluble analyte in the Octet assay
- Assay Name: BLI Octet, mAb on anti-mouse Fc sensor, CD4 100/50/25 nM, 1:1 global fit;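 further: antibodies loaded at 10 µg/mL, an unrelated mouse-derived antibody served as internal reference control, association and dissociation phases fitted after Savitzky-Golay smoothing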
Assay Metric: Response
// no unit string in output, number only

Consider the reported Response for these binders:
- Binder: "75110_05A11A (antibody, V domains shown, Tested as antibody purified from AlivaMab Mouse hybridoma supernatant (captured by anti-mouse IgG Fc)) VH: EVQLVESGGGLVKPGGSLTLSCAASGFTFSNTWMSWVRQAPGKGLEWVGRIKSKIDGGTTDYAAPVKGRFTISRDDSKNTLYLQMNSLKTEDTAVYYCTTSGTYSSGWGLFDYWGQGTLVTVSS VL: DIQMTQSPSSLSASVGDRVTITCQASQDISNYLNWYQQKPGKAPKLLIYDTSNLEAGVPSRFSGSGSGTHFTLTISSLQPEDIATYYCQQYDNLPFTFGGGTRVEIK"
  Response: 0.27
- Binder: "75110_02I16A (antibody, V domains shown, Tested as antibody purified from AlivaMab Mouse hybridoma supernatant (captured by anti-mouse IgG Fc)) VH: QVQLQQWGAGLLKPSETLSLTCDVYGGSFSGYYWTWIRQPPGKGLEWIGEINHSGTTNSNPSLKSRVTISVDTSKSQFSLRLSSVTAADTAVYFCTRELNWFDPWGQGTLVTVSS VL: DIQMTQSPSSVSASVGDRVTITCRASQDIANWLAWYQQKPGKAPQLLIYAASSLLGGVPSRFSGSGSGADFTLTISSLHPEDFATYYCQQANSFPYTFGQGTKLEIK"
  Response: 0.22

Here's the next entry for you.
Per the record, 75110_02E22A (antibody, V domains shown, Tested as antibody purified from AlivaMab Mouse hybridoma supernatant (captured by anti-mouse IgG Fc)) VH: QVQLQESGPGLVKPSETLSLTCTVSGGSISSFYWSWIRQPAGKGLEWIGRIYTSGSTNYNPSLKSRVTMSVDTSKNQFSLKLSSVTAADTAVYYCARELEKRNYYGMDVWGQGTTVTVSS VL: DIQMTQSPSSLSASVGDRVTITCQASHDISNYLNWYQQKPGKAPKLLIFDASTLETGVPSRFSGSGSGTYFTFTIRSLQPEDIATYYCQQYDSLPLTFGGGTKVEIK has Response of 0.16

Origin of measurements: patent US20220112288A1
